The measured values listed here are drawn from ChEMBL document CHEMBL1629494.

Readings of MIC for the listed compounds
- Test system: Staphylococcus aureus
- Assay notes: Antibacterial activity against methicillin-resistant Staphylococcus aureus H5996/08 after 24 hrs by broth microdilution method
- Assay type: functional
- Condition context: H5996/08, 24 h
Test readout: MIC (µM)

1) CC(=O)N[C@@H](Cc1ccccc1)C(=O)Oc1cc(Cl)ccc1C(=O)Nc1ccc(Cl)cc1 ... 1.95
2) CC(=O)N[C@@H](Cc1ccccc1)C(=O)Oc1cc(Cl)ccc1C(=O)Nc1ccc(Cl)c(Cl)c1 ... 125
3) CC(=O)N[C@@H](Cc1ccccc1)C(=O)Oc1cc(Cl)ccc1C(=O)Nc1cccc(Cl)c1 ... 125
4) CC(=O)N[C@@H](Cc1ccccc1)C(=O)Oc1ccc(Cl)cc1C(=O)Nc1ccc(C(F)(F)F)cc1 ... 0.98
5) CC(=O)N[C@@H](Cc1ccccc1)C(=O)Oc1ccc(Br)cc1C(=O)Nc1ccc(C(F)(F)F)cc1 ... 7.81
6) CC(=O)N[C@@H](Cc1ccccc1)C(=O)Oc1cc(Cl)ccc1C(=O)Nc1ccc(C(F)(F)F)cc1 ... 125
7) CC(=O)N[C@@H](Cc1ccccc1)C(=O)Oc1ccc(Cl)cc1C(=O)Nc1ccc(Cl)cc1 ... 125
8) CC(=O)N[C@@H](Cc1ccccc1)C(=O)Oc1cc(Cl)ccc1C(=O)Nc1ccc(Br)cc1 ... 0.98
